Reference source for all entries: patent EP0059606A1

- Tested on: rat PCA
- test_method_notes: Passive cutaneous anaphylaxis (PCA) in rats
- Format: in vivo
- reported_conditions: iv, 0 h, dose 2.0 mg/kg, carrier PBS with NaHCO3, time 0 mins between administration and antigen challenge
- Excerpt: Serum containing heat labile homocytotropic antibody was raised in rats to crystallised ovalbumin (Grade 3 Sigma) by the Method of I. Mota (Immunology 7, 681 (1964)) using Bordetella pertussis vaccine ([…] Burroughs Welcome) as adjuvant. […]
value_type: inhibition in vivo at 2 mg/kg (%)
Numeric answer only, unit % assumed.

Answered examples (3):
O=c1c2ccccc2[s+]([O-])c2nn[nH]c12 (racemic)	61
Cc1cc2c(cc1C)S(=O)(=O)c1nn[nH]c1C2=O	74
Cc1cc2sc3nn[nH]c3c(=O)c2cc1C	90

Would you kindly look at the next entry?
Inquiry: Using the record for COc1ccc2sc3nn[nH]c3c(=O)c2c1 , state its measured inhibition in vivo at 2 mg/kg.
Reply text: 58
